Taken from PubChem BioAssay.

Tested on: F380Y
experimentNotes: modulators of BK channel variants, profiling panel, selectivity assay, cell-based, U2OS BacMam, thallium flux, beta subunits (AID 1259406);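 also: initial slope of Thallos dye fluorescence rise after thallium is added; log ratio against the mean of 0.3% DMSO vehicle wells on the same plate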
conditionLabel: at 30 µM
measurementLabel: log fold change Tl+ flux
// no unit string in output, number only

# count of solved cases: 3
compound	system	log fold change Tl+ flux
COc1cc2c(cc1OC)[C@@]13CCN4CC5=CCO[C@H]6CC(=O)N2[C@H]1[C@H]6[C@H]5C[C@H]43	F380Y	0.0307
CC1CCC[C@H](O)CCCCCc2cc(O)cc(O)c2C(=O)O1 (some centres undefined)	F380Y	0.0327
COc1ccc2[nH]cc(C3=CCNCC3)c2c1	F380Y	0.0506

Param item: O=P1(N(CCCl)CCCl)NCCCO1 (centres undefined) ; param system: F380Y; output log fold change Tl+ flux: -0.0772

Param item: CCOC(=O)c1cncn1[C@H](C)c1ccccc1 ; param system: F380Y; output log fold change Tl+ flux: -0.0483

Param item: C[C@]12CC(=CO)C(=O)C[C@@H]1CC[C@@H]1[C@@H]2CC[C@@]2(C)[C@H]1CC[C@]2(C)O ; param system: F380Y; output log fold change Tl+ flux: 0.111

Param item: NC(=O)OCCCc1ccccc1 ; param system: F380Y; output log fold change Tl+ flux: 0.0271
